Tested Target: human GLP-1 receptor (human, UniProt P43220 24-463)
Sequence (P43220 24-463): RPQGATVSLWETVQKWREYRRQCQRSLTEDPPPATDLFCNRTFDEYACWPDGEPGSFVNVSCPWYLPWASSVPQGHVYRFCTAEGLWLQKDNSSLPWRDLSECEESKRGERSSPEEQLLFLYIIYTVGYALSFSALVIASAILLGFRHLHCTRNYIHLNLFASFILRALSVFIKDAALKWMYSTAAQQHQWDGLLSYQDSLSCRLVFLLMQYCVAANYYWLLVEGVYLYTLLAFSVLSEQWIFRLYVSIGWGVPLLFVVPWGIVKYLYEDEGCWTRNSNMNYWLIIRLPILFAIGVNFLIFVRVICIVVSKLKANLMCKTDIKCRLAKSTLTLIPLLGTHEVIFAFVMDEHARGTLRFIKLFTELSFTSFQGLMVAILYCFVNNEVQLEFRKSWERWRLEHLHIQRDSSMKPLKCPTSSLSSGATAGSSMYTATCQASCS
Assay: cell-based or functional assay
Starred links: 1 amine or outer side, 2 acyl side, 3 side chain; linkers in the order of their positions; H or OH if unused. Non-standard residues stand in square brackets, D forms with d. No end group written: not given here. *: point of attachment. 2,4‑diF‑APPA = 2-amino-5-(2,4-difluorophenyl)pentanoic acid, O=C([C@H](CCCc1ccc(F)cc1F)N[*:1])[*:2]; ACPP = 2-amino-5-(3-chlorophenyl)pentanoic acid, O=C([C@H](CCCc1cccc(Cl)c1)N[*:1])[*:2]; Bip(2'-Et-4'-OMe) = CCc1cc(OC)ccc1-c1ccc(C[C@H](N)C(=O)O)cc1; Leu(5,5,5,5',5',5'-F6) = N[C@@H](CC(C(F)(F)F)C(F)(F)F)C(=O)O; 2F‑APPA = 2-amino-5-(2-fluorophenyl)pentanoic acid; αMePhe(2-F) = C[C@](N)(Cc1ccccc1F)C(=O)O; hhPhe = N[C@@H](CCCc1ccccc1)C(=O)O; aThr = C[C@H](O)[C@H](N)C(=O)O; CNB = not defined here; Aib = CC(C)(N)C(=O)O; Moc = COC(=O)*
Recorded cAMP release, % activity, 100 nM for the following binders
Please answer using the number first and the unit second.

Some solved entries appear below for comparison.
Moc-H[Aib][CNB]GT[αMePhe(2-F)]TSD[Bip(2'-Et-4'-OMe)][hhPhe] (reading uncertain) [Seq. ID. No. 206: CH3OCO-H-Aib-(CNB)-GT-(α-Me-2F-Phe)-TSD-Bip(OMe)-(APPA)] = 86%
H[Aib]QG[aThr][αMePhe(2-F)][aThr]SD[Bip(2'-Et-4'-OMe)][2F‑APPA] (also: reduced (CH2) bonds Z9-Z10 and Z10-Z11) [Seq. ID. No. 203: H-Aib-QG-T(allo)-(α-Me-2F-Phe)-T(allo)-SD-(CH2)-Bip(OMe)-(CH2)-(2F-APPA)] = 99%
H[Aib][Leu(5,5,5,5',5',5'-F6)]GT[αMePhe(2-F)][aThr]SD[Bip(2'-Et-4'-OMe)][2F‑APPA] [Seq. ID. No. 224: H-Aib-(Hfl)-GT-(α-Me-2F-Phe)-T(allo)-SD-Bip(OMe)-(2F-APPA)] = 99%

Param item = H[Aib][CNB]G[aThr][αMePhe(2-F)]TSD[Bip(2'-Et-4'-OMe)][hhPhe] (reading uncertain) [Seq. ID. No. 110: H-Aib-(CNB)-G-T(allo)-(α-Me-2F-Phe)-TSD-Bip(OMe)-(APPA)] ; retrieve measured cAMP release, % activity, 100 nM. 85%

What value of measured cAMP release, % activity, 100 nM is listed for H[Aib][CNB]G[aThr][αMePhe(2-F)][aThr]SD[Bip(2'-Et-4'-OMe)][hhPhe] (reading uncertain; also: reduced (CH2) bond between 10 and 11) [Seq. ID. No. 190: H-Aib-(CNB)-G-T(allo)-(α-Me-2F-Phe)-T(allo)-SD-Bip(OMe)-(CH2)-(APPA)] ? 87%

Could you tell me which cAMP release, % activity, 100 nM is on file for Ac-H[Aib]QG[aThr][αMePhe(2-F)][aThr]SD[Bip(2'-Et-4'-OMe)][hhPhe] [Seq. ID. No. 101: CH3CO-H-Aib-QG-T(allo)-(α-Me-2F-Phe)-T(allo)-SD-Bip(OMe)-(APPA)] ? 87%

Need cAMP release, % activity, 100 nM of H[Aib][CNB]G[aThr][αMePhe(2-F)][aThr]SD[Bip(2'-Et-4'-OMe)][hhPhe] (reading uncertain; also: thioamide bonds between residues 9-10 and 10-11) [Seq. ID. No. 178: H-Aib-(CNB)-G-T(allo)-(α-Me-2F-Phe)-T(allo)-SD-(C═S)-Bip(OMe)-(C═S)-(APPA)] , thanks. 86%

Fill in: cAMP release, % activity, 100 nM of H[Aib]QGTFTSD[Bip(2'-Et-4'-OMe)][ACPP] [Seq. ID. No. 19: H-Aib-QGTFTSD-Bip(OMe)-(ACPP)] is ___ 99%

Item under review: Ac-H[Aib]QG[aThr][αMePhe(2-F)][aThr]SD[Bip(2'-Et-4'-OMe)][hhPhe] (also: reduced (CH2) bond between 10 and 11) [Seq. ID. No. 185: CH3CO-H-Aib-QG-T(allo)-(α-Me-2F-Phe)-T(allo)-SD-Bip(OMe)-(CH2)-(APPA)] . Reported cAMP release, % activity, 100 nM? 90%

# input binder: H[Aib][Leu(5,5,5,5',5',5'-F6)]G[aThr][αMePhe(2-F)][aThr]SD[Bip(2'-Et-4'-OMe)][hhPhe] [Seq. ID. No. 228: H-Aib-(Hfl)-G-T(allo)-(α-Me-2F-Phe)-T(allo)-SD-Bip(OMe)-(APPA)] ; wanted: its cAMP release, % activity, 100 nM 99%

For the binder Ac-H[Aib][CNB]GT[αMePhe(2-F)]TSD[Bip(2'-Et-4'-OMe)][hhPhe] (reading uncertain) [Seq. ID. No. 205: CH3CO-H-Aib-(CNB)-GT-(α-Me-2F-Phe)-TSD-Bip(OMe)-(APPA)] , what cAMP release, % activity, 100 nM is on record? 99%

Value lookup for cAMP release, % activity, 100 nM; key = H[Aib][CNB]G[aThr][αMePhe(2-F)][aThr]SD[Bip(2'-Et-4'-OMe)][2F‑APPA] (reading uncertain; also: reduced (CH2) bonds Z9-Z10 and Z10-Z11) [Seq. ID. No. 204: H-Aib-(CNB)-G-T(allo)-(α-Me-2F-Phe)-T(allo)-SD-(CH2)-Bip(OMe)-(CH2)-(2F-APPA)] 99%

# cAMP release, % activity, 100 nM lookup, item H[Aib]QGTFTSD[Bip(2'-Et-4'-OMe)][2,4‑diF‑APPA] [Seq. ID. No. 62: H-Aib-QGTFTSD-Bip(OMe)-(2,4-diF-APPA)] 86%
